# tgt: Human COX I (Homo sapiens, UniProt P23219)
# Construct: A 2.0 kb fragment containing the coding region of either human or murine COX-I or human or murine COX-II
# Sequence (P23219 24-599): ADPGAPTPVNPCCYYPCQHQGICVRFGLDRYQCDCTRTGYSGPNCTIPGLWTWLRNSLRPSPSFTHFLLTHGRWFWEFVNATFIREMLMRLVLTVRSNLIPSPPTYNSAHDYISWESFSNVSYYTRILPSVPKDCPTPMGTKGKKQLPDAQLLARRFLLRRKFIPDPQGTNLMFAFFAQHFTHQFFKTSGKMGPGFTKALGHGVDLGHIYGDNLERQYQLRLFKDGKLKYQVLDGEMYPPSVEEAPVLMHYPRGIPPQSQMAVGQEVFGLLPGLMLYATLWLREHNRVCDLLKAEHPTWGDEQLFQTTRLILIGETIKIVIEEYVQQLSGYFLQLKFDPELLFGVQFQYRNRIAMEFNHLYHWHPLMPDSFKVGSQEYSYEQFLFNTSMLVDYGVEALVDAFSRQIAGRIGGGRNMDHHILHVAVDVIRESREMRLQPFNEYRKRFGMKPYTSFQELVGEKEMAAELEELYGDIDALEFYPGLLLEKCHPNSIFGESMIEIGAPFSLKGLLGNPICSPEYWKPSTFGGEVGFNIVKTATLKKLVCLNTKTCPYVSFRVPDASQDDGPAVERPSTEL
# test summary: COX I activity in vitro (PGE2 formed, ELISA; recombinant enzyme, baculovirus/SF9 insect cell membranes)
# condition summary: arachidonic acid 10 μM; 10-20 min pre-incubation; pH 8.0; read-out: Human COX I ID50
# Experimental: Evaluation of COX I and COX II activity in vitro The COX II inhibition activity of the compounds of this invention illustrated in the Examples was determined by the following methods. a. Preparation of recombinant CQX baculoviruses […] COX activity was assayed as PGE2 formed/μg protein/time using an ELISA to detect the prostaglandin released. […] The PGE2 formed was measured by standard ELISA technology (Cayman Chemical).
Please go through the items and note down their IC50.

Worked examples follow.
COc1ccc2c(ccc3c(C(F)F)nn(-c4ccc(S(N)(=O)=O)cc4)c32)c1 [Example 2] | 0.8 µM
COc1ccc2c(ccc3c(C(F)(F)F)nn(-c4ccc(S(N)(=O)=O)cc4)c32)c1 [Example 3] | > 100 µM
COc1ccc2c(ccc3c(C(F)F)nn(-c4ccc(S(N)(=O)=O)cc4)c32)c1Cl [Example 1] | > 100 µM
COc1ccc2c(ccc3cnn(-c4ccc(S(N)(=O)=O)cc4)c32)c1 [Example 4] | > 100 µM

INPUT: Name the recorded IC50 for NS(=O)(=O)c1ccc(-n2nc(C(F)(F)F)c3ccc4ccccc4c32)cc1 [Example 5] .
OUTPUT: > 100 µM
